All figures here come from the Human Domainome abundance scans (Beltran et al. 2025).

B1: Mineralocorticoid receptor, residues 600 to 675; numbered along this chain, P08235 (parent)
chain: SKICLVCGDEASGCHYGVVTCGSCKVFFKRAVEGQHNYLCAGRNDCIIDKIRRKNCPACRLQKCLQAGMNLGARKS

variants of: B1; assay: abundance fitness (aPCA) (normalised: wild type 0, dead -1); higher = more abundant; growth selection in yeast, the domain comes from the species named; settings: Homo sapiens
abundance fitness below -0.1 gives 0; abundance fitness at or above it gives 1.

Solved entries:
I51D
1
G13H
1
C4Q
0
S12Q
1

# input for lookup
Query block: Answer whether abundance fitness of C14Y is greater than or equal to -0.1.
Result block: 1
